# Tested on: BMDM
# assay_protocol: Anti-osteoclastogenesis activity in C57BL/6 mouse BMDM cells assessed as inhibition of RANKL-induced osteoclastogenesis at 10 uM incubated for 7 days in the presence of M-CSF by TRAP-staining based microscopic analysis relative to control
# Assay type: functional
# measurement_conditions: C57BL/6, BMDM, 168 h, time 7 day
readout_type: inhibition at 10 µM (%)
One number for each entry, in %.

Recorded results for 5 compounds are shown here.
CC(=O)O[C@H]1[C@@H](OC(=O)CC(C)C)[C@](O)(CO)[C@@H]2[C@H](OC(C)=O)[C@@]3(O)[C@H](/C=C(CO)\C=C/[C@H](OC(=O)COC(=O)CC(C)C)[C@@]2(C)[C@H]1OC(C)=O)OC(=O)[C@@H]3C | 30.8
CC(=O)O[C@H]1CC/C(C)=C\[C@@H]2OC(=O)[C@H](C)[C@@]2(O)[C@@H](OC(C)=O)[C@H]2[C@]3(CC[C@H](OC(C)=O)[C@]12C)CO3 [JUNCEELLOLIDE K] | 86.6
C=C1/C=C/[C@H](OC(C)=O)[C@@]2(C)[C@@H](OC(C)=O)C[C@@H](OC(C)=O)[C@]3(CO3)[C@@H]2[C@H](OC(C)=O)[C@]2(O)[C@@H](C)C(=O)O[C@H]2[C@H]1Cl [GEMMACOLIDE H] | 13.1
C=C1[C@H](OC(C)=O)C[C@H](OC(C)=O)[C@@]2(C)[C@@H](OC(C)=O)C[C@@H](OC(C)=O)[C@]3(CO3)[C@@H]2[C@H](OC(C)=O)[C@]2(O)[C@@H](C)C(=O)O[C@H]2[C@H]1Cl | 80.8
C=C1[C@H](OC(=O)CC(C)C)C[C@H](OC(C)=O)[C@@]2(C)[C@@H](OC(C)=O)C[C@@H](OC(C)=O)[C@]3(CO3)[C@@H]2[C@H](OC(C)=O)[C@]2(O)[C@@H](C)C(=O)O[C@H]2[C@H]1Cl | 100

Return reported inhibition at 10 µM values for all items listed beneath this line.
1. CCOCC1=C/[C@@H]2OC(=O)[C@H](C)[C@@]2(O)[C@@H](OC(C)=O)[C@H]2[C@@]3(CO3)[C@H](OC(=O)CC(C)C)C(OC(C)=O)[C@H](OC(C)=O)[C@]2(C)[C@@H](OC(=O)COC(=O)CC(C)C)/C=C\1 (some centres undefined)
2. CCOCC1=C/[C@@H]2OC(=O)[C@H](C)[C@@]2(O)[C@@H](OC(C)=O)[C@H]2[C@@]3(CO3)[C@H](OC(C)=O)C[C@H](OC(C)=O)[C@]2(C)[C@@H](OC(C)=O)/C=C\1
3. CC(=O)O[C@H]1CC[C@]2(CO2)[C@@H]2[C@H](OC(C)=O)[C@@]3(O)[C@H](/C=C(/C)[C@H](OC(C)=O)C[C@H](OC(C)=O)[C@@]12C)OC(=O)[C@@H]3C [11ALPHA,20ALPHA-EPOXYJUNCEELLOLIDE]
4. C=C1[C@H]2O[C@]3([C@@H](C)C(=O)O[C@H]3[C@H]1Cl)[C@@H](OC(C)=O)[C@H]1[C@@](O)(CCl)CC[C@H](OC(C)=O)[C@]1(C)[C@@H](OC(C)=O)[C@@H]2OC(C)=O

1: 41.9; 2: 88.3; 3: 58.1; 4: 98.8
